target: Ephrin type-A receptor 2 (Homo sapiens); note: in the data inactive means no Kd found up to 30 µM
Sequence (P29317 whole entry): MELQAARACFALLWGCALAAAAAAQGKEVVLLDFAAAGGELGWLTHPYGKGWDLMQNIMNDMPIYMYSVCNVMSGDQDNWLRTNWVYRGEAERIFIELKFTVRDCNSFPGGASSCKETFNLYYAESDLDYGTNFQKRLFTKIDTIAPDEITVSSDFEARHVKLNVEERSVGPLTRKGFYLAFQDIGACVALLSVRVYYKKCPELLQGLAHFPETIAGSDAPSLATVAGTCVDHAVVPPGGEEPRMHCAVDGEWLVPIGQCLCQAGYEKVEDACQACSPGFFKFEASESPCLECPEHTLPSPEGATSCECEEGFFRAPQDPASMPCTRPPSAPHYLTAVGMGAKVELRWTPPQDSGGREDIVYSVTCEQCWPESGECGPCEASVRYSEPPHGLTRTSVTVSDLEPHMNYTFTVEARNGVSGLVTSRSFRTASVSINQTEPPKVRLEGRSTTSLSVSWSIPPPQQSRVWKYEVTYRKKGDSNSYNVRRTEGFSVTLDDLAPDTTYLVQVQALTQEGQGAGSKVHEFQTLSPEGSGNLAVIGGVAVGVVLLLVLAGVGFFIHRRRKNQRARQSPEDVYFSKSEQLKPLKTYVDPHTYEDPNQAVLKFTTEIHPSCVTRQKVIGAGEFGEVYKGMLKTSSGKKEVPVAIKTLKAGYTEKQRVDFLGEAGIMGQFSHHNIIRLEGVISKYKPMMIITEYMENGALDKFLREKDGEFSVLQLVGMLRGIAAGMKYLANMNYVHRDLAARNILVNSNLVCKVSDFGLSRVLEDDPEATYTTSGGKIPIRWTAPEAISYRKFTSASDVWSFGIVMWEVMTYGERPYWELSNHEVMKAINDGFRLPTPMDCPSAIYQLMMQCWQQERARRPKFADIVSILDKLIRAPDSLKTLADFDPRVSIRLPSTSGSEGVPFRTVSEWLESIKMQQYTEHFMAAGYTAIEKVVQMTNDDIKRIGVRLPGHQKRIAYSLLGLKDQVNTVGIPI
The source made the active and inactive calls.
Hi! Could you answer with just one of these? T for active, F for inactive

Recorded results for 4 compounds are shown here.
compound	category
C=CC(=O)Nc1cc2c(Nc3ccc(F)c(Cl)c3)ncnc2cc1C#CC(C)(C)N1CCN(C)CC1 [AV-412 FREE BASE]	F
C[C@@H](NC(=O)c1ncnc(N)c1Cl)c1ncc(C(=O)Nc2cc(C(F)(F)F)c(Cl)cn2)s1	T
CCNC(=O)C#Cc1ccc2c(c1)NC(=O)/C2=C(\Nc1ccc(CN(C)C)cc1)c1ccccc1	F
CC(C)(C)c1nc(-c2cccc(NS(=O)(=O)c3c(F)cccc3F)c2F)c(-c2ccnc(N)n2)s1	F

Kindly consider the entry below.
Data request: Fill in: this test's call for `Cc1cc(Nc2ncc(Cl)c(Nc3ccccc3S(=O)(=O)C(C)C)n2)c(OC(C)C)cc1C1CCNCC1` is ___
Data returned: F

Cited source for all entries: ChEMBL document CHEMBL3991601
